# target under test: PARP1 (Homo sapiens)
# Sequence (P09874 whole entry): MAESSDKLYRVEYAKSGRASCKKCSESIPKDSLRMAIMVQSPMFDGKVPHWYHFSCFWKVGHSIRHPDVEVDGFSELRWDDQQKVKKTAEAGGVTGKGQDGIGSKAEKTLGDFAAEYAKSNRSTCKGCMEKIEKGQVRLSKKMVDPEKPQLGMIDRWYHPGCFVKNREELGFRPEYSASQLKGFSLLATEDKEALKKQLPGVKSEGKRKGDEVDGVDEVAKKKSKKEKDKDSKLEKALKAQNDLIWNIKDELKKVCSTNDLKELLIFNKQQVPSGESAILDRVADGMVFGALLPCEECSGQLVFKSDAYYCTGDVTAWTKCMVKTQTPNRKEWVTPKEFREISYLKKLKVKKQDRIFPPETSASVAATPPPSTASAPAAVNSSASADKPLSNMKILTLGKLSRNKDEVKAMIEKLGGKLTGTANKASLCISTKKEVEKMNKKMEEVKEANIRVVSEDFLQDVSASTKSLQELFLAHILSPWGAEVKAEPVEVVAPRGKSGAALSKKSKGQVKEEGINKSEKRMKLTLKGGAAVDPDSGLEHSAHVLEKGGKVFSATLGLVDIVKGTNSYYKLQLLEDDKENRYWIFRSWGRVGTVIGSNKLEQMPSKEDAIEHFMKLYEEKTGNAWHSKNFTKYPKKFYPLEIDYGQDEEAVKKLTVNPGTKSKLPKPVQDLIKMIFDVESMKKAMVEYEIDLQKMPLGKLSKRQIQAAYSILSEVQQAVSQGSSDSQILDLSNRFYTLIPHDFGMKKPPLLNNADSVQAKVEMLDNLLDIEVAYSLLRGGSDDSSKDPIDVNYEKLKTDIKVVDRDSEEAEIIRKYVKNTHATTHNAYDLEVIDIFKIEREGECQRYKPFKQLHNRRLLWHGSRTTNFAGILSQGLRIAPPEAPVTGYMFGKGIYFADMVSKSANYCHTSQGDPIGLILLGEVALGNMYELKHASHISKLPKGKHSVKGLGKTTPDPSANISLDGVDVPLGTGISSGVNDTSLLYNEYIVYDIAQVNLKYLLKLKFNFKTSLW
# assay protocol: BPS PARP1 Chemiluminescent Activity Assay Kit
# Assay type: biochemical
Hi there, I'd appreciate the recorded IC50 for every entry that follows.

Look up IC50 for this compound: `NC(=O)c1cccc2c1O/C(=C\c1ccc(C(=O)O)cc1)C(=O)N2`
0.42 µM

Data request, read-out IC50, for `NC(=O)c1cccc2c1O/C(=C\c1ccc(O)cc1)C(=O)N2`
0.082 µM
